molecular target: SARS-CoV-2 WA-1 spike receptor binding domain (RBD) (SARS-CoV-2 WA-1 (S identical to …, UniProt P0DTC2)); assay: BLI
OBSERVED_PROPERTY: Kd (nM)
Write down the numeric answer in nM and omit the unit.

Lab book: Kd of S2H97 monoclonal antibody (antibody, V domains shown) VH: QVRLVQSGAEVKKSGESLKISCKGSGYSFTSYWIGWVRQMPGKGLEWMGIIYPGDSDTRYSPSFQGQVTISADKSISTVYLQWSSLKASDTAMYYCARQWSHYTYDYYYWGQGTLVTISS VL: QSVLTQPASVSGSPGQSITISCTGISSDVGGYNSVSWYQQHPGKAPKLMIYDVTNRPSGVSNRFSGSKSGNTASLTISGLQAEDEADYYCSSYTSSSTPPYVFGTGTKVSVL noted as 0.9

Kd measured on WRAIR-2057 monoclonal antibody (antibody, V domains shown) VH: EVQLVQSGAEVKKPGESLKISCKGSGYSFISYWIAWVRQMPGKGLEWMGIIYPGDSDTTYSPSFQGQVTISADKSISTAYLQWSSLKASDTAIYYCARLLYYSDSSPLDSWGQGTLVTVSS VL: DIQMTQSPSSLSASVGDRVTITCRASQSISTYLNWYQQKPGKAPNLLIYAASSLQSGVPSRFSGSGSGTDFTLTISSLQPEDFATYYCQQSHSTPRTFGPGTKVDIK = 6.3

Documented Kd of X17 monoclonal antibody (antibody, V domains shown) VH: QVQLQQSGAELARPGASVKLSCKASGYTFTFYWMQWLKQRPGQGLEWIGAIYPGDGDTRYTQRFKDKATLTADKSSSTAYIQLSSLASEDSAVYYCAGGEYDNYGFDYWGQGTTLTVSS VL: DIQMTQTTSSLSASLGDRVTISCRASQDISNYLNWYQQKPDGTVKLLIYYTSRLHSGVPSRFSGSGSGTDYSLTISNLEQEDIATYFCQQGTTLPYTFGGGTKLEIK : 4.72
